- Tested on: MDA-MB-435 melanoma
- assay_remarks: NCI-60 one-dose screen, 48 h (100 = growth as untreated, 0 = no growth, -100 = all killed)
- conditions: 10 µM unless noted
About 83,000 compounds went through this panel and 20% of them were active in at least one assay; those are over-represented in the sample as a whole. Activity calls are given as the source filed them. The calls were made as follows: active = growth percent below 10; inactive = the rest.
Let's look at some compounds and their measured growth.
assay_endpoint: growth

molecular_string: Cc1cc(Br)ccc1-n1cc(C#N)c(N)c1C(=O)c1ccc(Br)cc1
target_under_test: MDA-MB-435 melanoma
assay_endpoint: growth
observed_result: 100% (inactive)
//
molecular_string: C=C(C)[C@@H]1CC[C@]2(COCCCNCCCN)CC[C@]3(C)[C@H](CC[C@@H]4[C@@]5(C)CC[C@H](O)C(C)(C)[C@@H]5CC[C@]43C)[C@@H]12
target_under_test: MDA-MB-435 melanoma
assay_endpoint: growth
observed_result: -95.8% (active)
//
molecular_string: Cc1ccc2c(n1)C(=O)C(Cl)=C(Nc1ccc(C(=O)OC(C)(C)C)cc1)C2=O
target_under_test: MDA-MB-435 melanoma
assay_endpoint: growth
observed_result: 87.6% [9.25 µM] (inactive)
//
molecular_string: CN1CCN(c2ccc(Nc3nc(NCCCNS(=O)(=O)c4ccc(Cl)cc4)c4sccc4n3)cc2)CC1
target_under_test: MDA-MB-435 melanoma
assay_endpoint: growth
observed_result: 7.33% (active)
//
molecular_string: O=C(CCCCCC/C=C\c1csc(Br)n1)NO
target_under_test: MDA-MB-435 melanoma
assay_endpoint: growth
observed_result: 84.4% (inactive)
//
molecular_string: CCOC(=O)c1c(NCC(=O)Nc2cccc([N+](=O)[O-])c2)sc(C(C)=O)c1C
target_under_test: MDA-MB-435 melanoma
assay_endpoint: growth
observed_result: -26% (active)
//
molecular_string: CC(=O)N(O)CCCCCNC(=O)CCC(=O)N(O)CCCCCNC(=O)CCC(=O)N(O)CCCCCN(CCCCCCCCCC[P+](c1ccccc1)(c1ccccc1)c1ccccc1)CCCCCCCCCC[P+](c1ccccc1)(c1ccccc1)c1ccccc1
target_under_test: MDA-MB-435 melanoma
assay_endpoint: growth
observed_result: 4.44% (active)
//
molecular_string: COc1cc2oc(-c3cccc(NC(=O)[C@@H](N)C(C)C)c3)cc(=O)c2c(OC)c1OC
target_under_test: MDA-MB-435 melanoma
assay_endpoint: growth
observed_result: 109% (inactive)
//
molecular_string: O=C(CN1CCN(c2cc(=O)[nH]c3ccc(F)cc23)CC1)N(c1ccccc1)c1ccccc1
target_under_test: MDA-MB-435 melanoma
assay_endpoint: growth
observed_result: 102% (inactive)
//
molecular_string: Oc1[nH]c2ccc(Cl)cc2c1N=Nc1nc(N=Nc2c(O)[nH]c3ccc(Cl)cc23)nc(N2CCOCC2)n1
target_under_test: MDA-MB-435 melanoma
assay_endpoint: growth
observed_result: 63.5% (inactive)
//
molecular_string: Cc1c(C(=O)/C=C/c2ccc(Cl)cc2)nnn1-c1ccc2oc(=O)ccc2c1
target_under_test: MDA-MB-435 melanoma
assay_endpoint: growth
observed_result: 99.7% (inactive)
//
molecular_string: COc1ccc(NC(=O)CCCCCCNC(=O)C(O)(O)C(F)(F)F)cc1
target_under_test: MDA-MB-435 melanoma
assay_endpoint: growth
observed_result: 38.8% (inactive)

---

- System: LOX IMVI melanoma
- assay_remarks: NCI-60 one-dose screen, 48 h (100 = growth as untreated, 0 = no growth, -100 = all killed)
- conditions: 10 µM unless noted
About 83,000 compounds went through this panel and 20% of them were active in at least one assay; those are over-represented in the sample as a whole.
Decide using growth alone. Strictly below 60%: yes (1). Equal to or above 60%: no (0).

compound: CC1CCN(CC(=O)Nn2c(COc3ccccc3)nc3ccccc3c2=O)CC1
discrete_label: no (0)

compound: CC1=C(C)C(=O)C(Nc2ccc(C)cc2)=C(Br)C1=O
discrete_label: yes (1)

compound: COc1ccc(/C(=N\NC(N)=S)c2ccc(Cl)cc2)cc1OC
discrete_label: yes (1)

compound: CSc1ccc(/C(=N/N=C(N)N)c2ccc(F)cc2)cc1
discrete_label: yes (1)

compound: CCCCCCCCCCCC(=O)NC(C)(C)C(=O)N1CCCC1C(=O)NC(C)(C)C(=O)NC(C)(C)C(=O)N1CCCC1C(=O)NC(C)(C)C(=O)NC(C)(C)C(=O)N1CCCC1C(=O)NC(C)C(=O)NCCC(=O)NC(C)C(=O)NC(C)(C)C(=O)NC(C)(C)C(=O)NC(C)(C)C(=O)NCCC(=O)NC(C)(C)C(=O)NC(C)(C)C(=O)NC(C)(C)C(=O)NC(C)C(=O)NCCC(=O)O (centres undefined)
discrete_label: yes (1)

compound: OCC(Nc1ncnc2ccc(-c3cnc4cnccn34)cc12)c1ccccc1 (centres undefined)
discrete_label: no (0)

compound: C/C(=N/N)c1nnn(-c2ccc(Br)cc2)c1C
discrete_label: no (0)

compound: O=C(/C=C/Nc1ccc(S(=O)(=O)Nc2ncccn2)cc1)c1ccc(N=Cc2c(O)[nH]c3ccccc23)cc1
discrete_label: no (0)

compound: Cc1ccc(OCc2occc2C(=O)N2CCOCC2)cc1
discrete_label: no (0)

compound: CC(=O)Nc1cc(N2CCOCC2)c2nc(NC(=O)c3[nH]c(C)c(Cl)c3Cl)sc2c1
discrete_label: yes (1)

compound: CS(=O)(=O)c1ccc(/C(=N/N=C(N)N)c2ccc(F)cc2)cc1
discrete_label: yes (1)

compound: O=C(NNc1nc2cc(F)cc(F)c2n2cccc12)c1cccnn1
discrete_label: yes (1)

compound: COc1cc(-c2nc(-c3ccccc3)[nH]c2-c2ccnc(NCCCNS(=O)(=O)c3cccc(F)c3)n2)ccc1F
discrete_label: no (0)

compound: COc1ccc(C(C)=C(c2ccc(OCCN(C)C)cc2)c2ccc(OCCN(C)C)cc2)cc1
discrete_label: yes (1)
